method notes: Dd2 malaria parasite growth inhibition potency – SYBR Green, dry powder samples, dose response (AID 1159566);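 also: potency for growth inhibition with lower SYBR green DNA signal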
Assay type: functional, cell-based
The source made the active and inactive calls.
measurement kind: AC50

Recorded results for 3 molecules are shown here.
• COc1ccc(-c2ccc([C@H]3[C@@H]4CN(S(=O)(=O)c5cccc(C)c5)C[C@H]3N4)cc2)cc1 = 2 µM (active)
• COc1ccc2c3c(n(C)c2c1)[C@H](CO)N(C(=O)Nc1ccc(F)cc1)CC31CCN(Cc2cccnc2)CC1 = 1.61 µM (active)
• COc1ccc(C#Cc2cnc3c(c2)C(=O)N([C@H](C)CO)C[C@H](C)[C@H](CN(C)S(=O)(=O)c2cccc(F)c2)O3)cc1OC = 0.774 µM (active)

Kindly review the next molecule as well.
Query string: Consider the molecule shown here: C[C@H]1CN([C@@H](C)CO)S(=O)(=O)c2ccc(C#Cc3ccccc3F)cc2O[C@@H]1CN(C)C(=O)c1ccc2c(c1)OCO2 What is its recorded AC50?
Result string: 1.55 µM (active)

====

AC50 reference
system under test: FAD-linked sulfhydryl oxidase ALR (Homo sapiens)
Sequence (P55789 whole entry): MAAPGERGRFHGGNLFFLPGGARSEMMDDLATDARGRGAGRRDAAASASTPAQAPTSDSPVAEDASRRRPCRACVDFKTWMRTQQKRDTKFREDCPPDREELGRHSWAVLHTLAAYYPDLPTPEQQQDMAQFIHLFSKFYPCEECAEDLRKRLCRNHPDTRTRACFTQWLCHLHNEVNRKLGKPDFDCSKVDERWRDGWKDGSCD
method notes: ALR-catalysed DTT oxidation blockers – biochemical, H2O2 detection, luminescence, cherry-pick, dose response (AID 493248)
Calls of active or inactive are those of the source.

Recorded results for 3 molecules are shown here.
• CCN1CCN(Cc2cc(Br)cc(Br)c2O)CC1 = 11200 nM (active)
• O=C(NC1=NCCS1)c1csc2ccccc12 = 582 nM (active)
• Cc1ccc(NC2CCCN(C(=O)c3ccc(C)c(N4CCNC4=O)c3)C2)cc1C (stereo unspecified) = 3320 nM (active)

Query string: Consider the molecule shown here: COc1cc(C(=O)c2ccccc2)c(OC)cc1C(=O)Nc1ccc(O)cc1 What is its recorded AC50?
Result string: 39 nM (active)

Query string: And the next one, COc1cccc(OC)c1C(=O)N1CCN=C1SCc1cccnc1 ?
Result string: 43 nM (active)

Query string: And the next one, Cc1cccc(/C=N/n2c(S)nnc2-c2ccccc2)c1O ?
Result string: 3820 nM (active)

====

IC50 reference
system under test: Fatty acid synthase (Homo sapiens, UniProt P49327)
Sequence (P49327 whole entry): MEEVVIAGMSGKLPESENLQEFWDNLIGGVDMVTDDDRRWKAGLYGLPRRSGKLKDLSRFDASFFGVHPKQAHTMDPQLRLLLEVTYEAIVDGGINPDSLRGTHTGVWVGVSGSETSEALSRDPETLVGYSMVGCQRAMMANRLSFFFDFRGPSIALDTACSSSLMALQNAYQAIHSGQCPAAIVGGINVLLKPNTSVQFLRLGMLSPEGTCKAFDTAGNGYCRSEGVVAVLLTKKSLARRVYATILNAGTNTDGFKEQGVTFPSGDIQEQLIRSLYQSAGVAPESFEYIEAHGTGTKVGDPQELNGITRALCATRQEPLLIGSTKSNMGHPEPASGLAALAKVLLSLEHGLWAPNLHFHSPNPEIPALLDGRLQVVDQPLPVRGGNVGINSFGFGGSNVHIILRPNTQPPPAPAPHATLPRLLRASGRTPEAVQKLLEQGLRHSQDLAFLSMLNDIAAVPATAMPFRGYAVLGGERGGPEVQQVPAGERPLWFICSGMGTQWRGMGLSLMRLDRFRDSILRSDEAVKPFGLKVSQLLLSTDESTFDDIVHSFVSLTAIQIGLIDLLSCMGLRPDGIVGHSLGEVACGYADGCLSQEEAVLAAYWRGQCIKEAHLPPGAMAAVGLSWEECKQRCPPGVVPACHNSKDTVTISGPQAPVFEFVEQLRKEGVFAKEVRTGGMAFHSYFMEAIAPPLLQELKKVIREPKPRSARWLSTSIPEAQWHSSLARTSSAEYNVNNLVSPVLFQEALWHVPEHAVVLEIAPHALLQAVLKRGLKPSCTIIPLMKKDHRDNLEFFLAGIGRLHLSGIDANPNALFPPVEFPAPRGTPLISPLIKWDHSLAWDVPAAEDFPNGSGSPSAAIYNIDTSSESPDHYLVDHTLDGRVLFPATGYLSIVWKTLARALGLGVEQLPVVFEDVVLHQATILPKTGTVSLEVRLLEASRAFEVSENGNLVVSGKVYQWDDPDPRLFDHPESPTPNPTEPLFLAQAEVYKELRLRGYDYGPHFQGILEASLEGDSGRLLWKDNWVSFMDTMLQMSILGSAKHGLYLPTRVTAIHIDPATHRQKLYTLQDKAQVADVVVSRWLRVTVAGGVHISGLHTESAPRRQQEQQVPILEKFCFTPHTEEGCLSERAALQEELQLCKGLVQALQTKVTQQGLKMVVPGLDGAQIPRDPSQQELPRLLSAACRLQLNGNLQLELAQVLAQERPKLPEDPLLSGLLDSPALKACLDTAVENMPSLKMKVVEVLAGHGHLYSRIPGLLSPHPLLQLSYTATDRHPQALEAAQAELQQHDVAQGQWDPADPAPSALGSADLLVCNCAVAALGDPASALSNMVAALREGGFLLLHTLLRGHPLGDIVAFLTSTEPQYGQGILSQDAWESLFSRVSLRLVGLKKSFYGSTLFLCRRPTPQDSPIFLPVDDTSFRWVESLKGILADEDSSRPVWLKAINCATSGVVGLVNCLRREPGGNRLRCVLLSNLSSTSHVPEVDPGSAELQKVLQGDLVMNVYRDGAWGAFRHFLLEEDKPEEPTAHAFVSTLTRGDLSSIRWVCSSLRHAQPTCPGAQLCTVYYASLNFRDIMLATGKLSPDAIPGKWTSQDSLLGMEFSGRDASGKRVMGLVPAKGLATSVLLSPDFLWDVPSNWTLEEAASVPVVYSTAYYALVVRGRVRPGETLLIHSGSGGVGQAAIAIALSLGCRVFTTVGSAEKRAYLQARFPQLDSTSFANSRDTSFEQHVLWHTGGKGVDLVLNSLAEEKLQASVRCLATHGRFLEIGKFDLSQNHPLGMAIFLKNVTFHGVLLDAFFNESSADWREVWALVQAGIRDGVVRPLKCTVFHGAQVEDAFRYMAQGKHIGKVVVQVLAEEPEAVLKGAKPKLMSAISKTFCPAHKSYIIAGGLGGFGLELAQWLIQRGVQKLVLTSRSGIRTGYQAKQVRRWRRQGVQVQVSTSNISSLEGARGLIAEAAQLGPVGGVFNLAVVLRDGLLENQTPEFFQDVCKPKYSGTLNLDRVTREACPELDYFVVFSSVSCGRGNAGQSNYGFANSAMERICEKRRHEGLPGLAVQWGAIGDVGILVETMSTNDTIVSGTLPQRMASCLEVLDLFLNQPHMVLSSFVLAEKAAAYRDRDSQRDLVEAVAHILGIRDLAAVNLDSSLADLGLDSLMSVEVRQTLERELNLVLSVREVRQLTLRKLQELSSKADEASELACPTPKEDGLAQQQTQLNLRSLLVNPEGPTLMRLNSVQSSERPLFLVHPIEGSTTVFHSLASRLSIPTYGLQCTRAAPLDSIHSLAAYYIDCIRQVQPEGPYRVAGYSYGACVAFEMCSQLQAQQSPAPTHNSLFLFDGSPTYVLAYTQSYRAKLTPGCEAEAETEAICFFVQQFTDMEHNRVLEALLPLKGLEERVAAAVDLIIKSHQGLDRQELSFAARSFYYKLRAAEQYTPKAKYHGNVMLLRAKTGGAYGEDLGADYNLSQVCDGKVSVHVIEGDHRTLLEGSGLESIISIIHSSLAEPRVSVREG
method notes: inhibition of human FAS-TE enzyme activity – biochemical, kinetic fluorescence intensity, dose response (AID 624326);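 also: rate of fluorescence rise from hydrolysis of a fluorogenic O-methyl fluorescein ester substrate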
Assay type: functional
The source made the active and inactive calls.

Recorded results for 6 molecules are shown here.
• Cc1ccc(C(=O)NCCNc2ncc(C(F)(F)F)cc2Cl)cc1[N+](=O)[O-] = 9.8 µM (active)
• O=C(Nc1nnc(-c2ccc(F)cc2)o1)c1cccc([N+](=O)[O-])c1 = 9.09 µM (active)
• CC(C)(C)C(=O)Nc1nc(C2CCCN2S(=O)(=O)c2ccc(Cl)cc2)cs1 (configuration not stated) = 8.77 µM (active)
• CC1(C)CC(=O)C=C(c2ccc(COC(=O)c3ccccc3)cc2)C1=O = 3.75 µM (active)
• O=C(NNS(=O)(=O)c1ccc([N+](=O)[O-])cc1)c1cnn(-c2ccccc2)c1-n1cccc1 = 4.35 µM (active)
• O=S(=O)(Nc1cccc(-n2cnnn2)c1)c1cnc(Cl)c(Cl)c1 = 8.01 µM (active)

Kindly review the next molecule as well.
Query string: Query the reported IC50 for Fatty acid synthase (Homo sapiens, UniProt P49327); item: O=C(COC(=O)c1cc([N+](=O)[O-])ccc1N1CCOCC1)NCc1ccc(Cl)cc1Cl
Result string: 1.05 µM (active)

====

system under test: Luciferin 4-monooxygenase (Photinus pyralis, UniProt P08659)
Sequence (P08659 whole entry): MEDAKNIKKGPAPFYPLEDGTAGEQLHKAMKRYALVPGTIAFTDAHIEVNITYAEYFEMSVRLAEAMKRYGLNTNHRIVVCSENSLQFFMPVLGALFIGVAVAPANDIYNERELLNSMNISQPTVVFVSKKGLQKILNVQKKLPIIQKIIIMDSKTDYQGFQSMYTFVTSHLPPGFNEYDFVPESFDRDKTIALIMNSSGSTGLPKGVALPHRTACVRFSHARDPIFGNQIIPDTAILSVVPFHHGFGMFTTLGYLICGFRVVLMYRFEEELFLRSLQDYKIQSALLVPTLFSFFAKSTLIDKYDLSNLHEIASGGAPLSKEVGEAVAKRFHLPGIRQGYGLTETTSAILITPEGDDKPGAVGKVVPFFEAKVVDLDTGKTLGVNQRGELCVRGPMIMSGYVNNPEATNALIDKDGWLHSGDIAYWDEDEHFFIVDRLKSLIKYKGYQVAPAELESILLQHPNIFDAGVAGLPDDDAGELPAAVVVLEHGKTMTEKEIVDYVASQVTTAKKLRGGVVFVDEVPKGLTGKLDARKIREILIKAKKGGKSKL
method notes: inhibition of purified Photinus pyralis luciferase – biochemical, luminescence, dose response (AID 1891)
The source made the active and inactive calls.
measurement kind: EC50

Recorded results for 5 compounds are shown here.
- COC(=O)c1sccc1NC(=O)Nc1ccc(OC)cc1: 0.358 µM (active)
- Cc1onc(-c2ccccc2Cl)c1C(=O)Nc1ccc(F)c(F)c1: > 112 µM (not active)
- CCCCOC(=O)N/N=C/C=C/c1ccccc1: > 112 µM (not active)
- CCN(CC)S(=O)(=O)c1cccc(NC(=O)COC(=O)CCC(=O)c2ccc(F)cc2)c1: > 112 µM (not active)
- Nc1ccc2nc(-c3ccccc3)sc2c1: 0.958 µM (active)

Query string: Consider the compound shown here: COc1cc2c(cc1OC)-c1cc(N3CCCCCC3)nc(=O)n1CC2 What is its recorded EC50?
Result string: > 112 µM (not active)

Query string: And the next one, O=S(=O)(Nc1cccc(-c2ccc3nncn3n2)c1)c1cc(F)ccc1F ?
Result string: > 112 µM (not active)

====

System: Cytochrome P450 2C9 (Homo sapiens) | Read-out: AC50
Sequence (P11712 whole entry): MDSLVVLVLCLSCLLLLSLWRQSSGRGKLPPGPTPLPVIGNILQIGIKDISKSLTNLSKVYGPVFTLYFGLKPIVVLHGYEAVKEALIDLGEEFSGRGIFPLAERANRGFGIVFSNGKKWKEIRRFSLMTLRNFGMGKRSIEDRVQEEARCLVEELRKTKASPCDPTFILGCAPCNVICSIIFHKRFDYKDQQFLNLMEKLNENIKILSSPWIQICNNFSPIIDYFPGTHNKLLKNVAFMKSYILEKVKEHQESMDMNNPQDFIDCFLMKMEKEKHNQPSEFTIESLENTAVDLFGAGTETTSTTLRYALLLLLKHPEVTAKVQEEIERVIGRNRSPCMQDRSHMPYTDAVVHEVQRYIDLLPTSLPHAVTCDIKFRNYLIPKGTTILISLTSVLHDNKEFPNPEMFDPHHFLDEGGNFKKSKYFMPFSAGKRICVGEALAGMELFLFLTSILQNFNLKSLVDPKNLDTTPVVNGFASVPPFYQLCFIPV
measurement kind: AC50

• Brc1ccc2cccnc2c1 = inconclusive
• CC(C)NC(=O)N1CCC2(CC1)CCN(C(=O)c1cc(C(F)(F)F)cc(C(F)(F)F)c1)CC2 = inconclusive
• O=C(c1cc(-c2ccccc2Cl)on1)N1CCN(C(=O)c2ccco2)CC1 = inconclusive
• CC1(C)CC2(CC(C)(C(=O)CSc3nc4ccccc4s3)OC2=O)C(=O)O1 (centres undefined) = inconclusive

====

IC50 reference
system under test: Leucine aminopeptidase (Plasmodium falciparum 3D7)
Sequence (Q8IL11 whole entry): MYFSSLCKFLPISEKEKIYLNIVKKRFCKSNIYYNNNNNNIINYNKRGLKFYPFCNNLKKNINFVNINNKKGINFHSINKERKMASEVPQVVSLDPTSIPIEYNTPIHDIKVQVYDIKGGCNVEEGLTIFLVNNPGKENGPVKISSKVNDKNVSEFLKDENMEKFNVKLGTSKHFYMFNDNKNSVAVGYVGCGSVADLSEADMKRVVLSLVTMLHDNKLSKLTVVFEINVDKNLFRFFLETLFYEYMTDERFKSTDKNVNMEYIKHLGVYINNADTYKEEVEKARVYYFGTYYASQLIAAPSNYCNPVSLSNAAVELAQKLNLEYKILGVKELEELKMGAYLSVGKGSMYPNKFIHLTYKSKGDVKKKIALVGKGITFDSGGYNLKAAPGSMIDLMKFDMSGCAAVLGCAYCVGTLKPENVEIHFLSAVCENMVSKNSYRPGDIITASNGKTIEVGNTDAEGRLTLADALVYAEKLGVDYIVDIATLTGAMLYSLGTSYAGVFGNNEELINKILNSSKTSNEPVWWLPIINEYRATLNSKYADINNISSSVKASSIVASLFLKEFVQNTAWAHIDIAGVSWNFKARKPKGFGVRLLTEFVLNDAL
method notes: P. falciparum M17LAP inhibitors, primary screen, biochemical, fluorogenic H-Leu-NHMec substrate, 1536-well (AID 1619)
Assay type: functional
The source made the active and inactive calls.

- Cc1cc(S(=O)(=O)Nc2cccc(O)c2)c(C)s1: 14.6 µM (active)
- CCCCc1c(O)nc(SCC(=O)Nc2ccc3c(c2)CCC3)nc1O: 7.61 µM (active)
- Cc1ccc(S(=O)(=O)CCSc2cccc(C(=O)Nc3ccccc3C(=O)O)c2)cc1: 9.59 µM (active)

Query string: Consider the compound shown here: CCOc1ccc(NC(=O)COC(=O)c2cccnc2)cc1 What is its recorded IC50?
Result string: 27.4 µM (active)

Query string: And the next one, Cc1ccccc1Oc1ccc(NC(=O)C2CC=CCC2C(=O)O)cc1 (stereo not given) ?
Result string: 1.33 µM (active)

====

AC50 reference
system under test: Adenosylmethionine-8-amino-7-oxononanoate aminotransferase (Mycobacterium tuberculosis)
Sequence (P9WQ81 whole entry): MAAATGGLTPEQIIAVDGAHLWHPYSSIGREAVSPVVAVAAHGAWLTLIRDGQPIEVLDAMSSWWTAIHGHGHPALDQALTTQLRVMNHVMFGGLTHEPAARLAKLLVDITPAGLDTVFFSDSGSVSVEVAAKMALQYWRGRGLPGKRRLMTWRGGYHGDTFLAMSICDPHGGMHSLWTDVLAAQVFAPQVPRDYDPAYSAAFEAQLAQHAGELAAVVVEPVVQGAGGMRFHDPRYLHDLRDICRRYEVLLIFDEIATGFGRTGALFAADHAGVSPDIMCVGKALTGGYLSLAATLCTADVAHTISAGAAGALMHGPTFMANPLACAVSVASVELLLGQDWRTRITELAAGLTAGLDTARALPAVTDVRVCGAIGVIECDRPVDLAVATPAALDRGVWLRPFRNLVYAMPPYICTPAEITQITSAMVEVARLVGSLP
method notes: Mycobacterium tuberculosis BioA enzyme inhibitor Measured in Biochemical System Using Plate Reader - 2163-02_Inhibitor_Dose_CherryPick_Activity.
Assay type: functional, Mycobacterium tuberculosis UT205
Calls of active or inactive are those of the source.

Recorded results for 3 compounds are shown here.
- C#CCSc1nnc(-c2sc(-c3ccccc3)nc2C)n1C: 2880 nM (active)
- CN1c2ccc(-c3cccc(F)c3)cc2[C@H]2[C@H](CCN2C(=O)C2CCOCC2)[C@H]1CO: 108 nM (active)
- Cc1nc2nc(SCC(=O)NCc3ccco3)nn2c(C)c1Cc1ccccc1: 704 nM (active)

Kindly review the next compound as well.
Query string: Consider the compound shown here: CSc1ccc(S(=O)(=O)N2CCC(C(=O)Nc3cccnc3)CC2)cc1 What is its recorded AC50?
Result string: 807 nM (active)

====

system under test: 26S proteasome non-ATPase regulatory subunit 14 (Homo sapiens)
Sequence (O00487 whole entry): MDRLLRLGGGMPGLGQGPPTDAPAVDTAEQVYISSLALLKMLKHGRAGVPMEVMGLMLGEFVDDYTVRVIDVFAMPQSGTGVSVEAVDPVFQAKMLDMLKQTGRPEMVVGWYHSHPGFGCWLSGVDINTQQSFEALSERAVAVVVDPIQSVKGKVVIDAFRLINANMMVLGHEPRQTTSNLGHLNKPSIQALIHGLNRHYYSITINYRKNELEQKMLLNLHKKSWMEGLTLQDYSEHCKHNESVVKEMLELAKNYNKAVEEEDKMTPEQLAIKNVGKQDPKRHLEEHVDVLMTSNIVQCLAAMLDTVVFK
method notes: inhibition of proteasome subunit RPN11 – biochemical, fluorescence polarization, uHTS hits, confirmation (AID 602368)
Type: functional
The source made the active and inactive calls.
IC50 reference

Recorded results for 2 compounds are shown here.
* Cc1ccc(CO/N=C\Cc2snc(Sc3ncc(C(F)(F)F)cc3Cl)c2C#N)cc1 | 14.6 µM (active)
* N#C/C(=C\c1ccc(O)c(O)c1)C(=O)Nc1ccccc1 | 1.3 µM (active)

Query string: Consider the compound shown here: O=[N+]([O-])c1ccc(Sc2cccc3cccnc23)c([N+](=O)[O-])c1 What is its recorded IC50?
Result string: 27.6 µM (active)

Query string: And the next one, CC(C)n1ncc2c(C(=O)Nc3ccc(S(N)(=O)=O)cc3)cc(C3CC3)nc21 ?
Result string: 6.85 µM (active)
